Reference source for all entries: ChEMBL document CHEMBL5584255

target: Topoisomerase IV (Staphylococcus aureus, UniProt P0C1S7+P0C1U9); assay: Inhibition of drug-resistant Staphylococcus aureus topoisomerase 4
Sequence (P0C1U9 whole entry): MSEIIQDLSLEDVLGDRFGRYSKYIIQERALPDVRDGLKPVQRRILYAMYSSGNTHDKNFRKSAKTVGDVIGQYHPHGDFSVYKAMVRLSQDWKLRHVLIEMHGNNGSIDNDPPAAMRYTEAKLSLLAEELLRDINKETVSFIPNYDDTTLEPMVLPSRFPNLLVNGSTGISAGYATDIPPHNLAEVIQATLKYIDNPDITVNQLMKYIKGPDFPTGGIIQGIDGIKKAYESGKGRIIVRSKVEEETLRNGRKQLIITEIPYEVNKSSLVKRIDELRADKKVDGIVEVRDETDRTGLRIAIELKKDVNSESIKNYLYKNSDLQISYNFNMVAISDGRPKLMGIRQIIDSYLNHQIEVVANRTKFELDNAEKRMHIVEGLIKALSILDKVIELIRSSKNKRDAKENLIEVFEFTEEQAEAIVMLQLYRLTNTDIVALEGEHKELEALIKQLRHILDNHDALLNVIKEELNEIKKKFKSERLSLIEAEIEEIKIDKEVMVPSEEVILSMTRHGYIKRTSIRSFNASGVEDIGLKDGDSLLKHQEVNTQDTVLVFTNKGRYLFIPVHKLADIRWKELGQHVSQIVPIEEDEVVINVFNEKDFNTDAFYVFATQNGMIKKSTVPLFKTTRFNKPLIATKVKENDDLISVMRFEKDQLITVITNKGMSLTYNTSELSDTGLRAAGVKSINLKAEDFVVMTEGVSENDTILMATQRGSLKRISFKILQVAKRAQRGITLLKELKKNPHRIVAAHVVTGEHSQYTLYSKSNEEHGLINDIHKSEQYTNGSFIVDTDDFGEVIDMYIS
Sequence (P0C1S7 whole entry): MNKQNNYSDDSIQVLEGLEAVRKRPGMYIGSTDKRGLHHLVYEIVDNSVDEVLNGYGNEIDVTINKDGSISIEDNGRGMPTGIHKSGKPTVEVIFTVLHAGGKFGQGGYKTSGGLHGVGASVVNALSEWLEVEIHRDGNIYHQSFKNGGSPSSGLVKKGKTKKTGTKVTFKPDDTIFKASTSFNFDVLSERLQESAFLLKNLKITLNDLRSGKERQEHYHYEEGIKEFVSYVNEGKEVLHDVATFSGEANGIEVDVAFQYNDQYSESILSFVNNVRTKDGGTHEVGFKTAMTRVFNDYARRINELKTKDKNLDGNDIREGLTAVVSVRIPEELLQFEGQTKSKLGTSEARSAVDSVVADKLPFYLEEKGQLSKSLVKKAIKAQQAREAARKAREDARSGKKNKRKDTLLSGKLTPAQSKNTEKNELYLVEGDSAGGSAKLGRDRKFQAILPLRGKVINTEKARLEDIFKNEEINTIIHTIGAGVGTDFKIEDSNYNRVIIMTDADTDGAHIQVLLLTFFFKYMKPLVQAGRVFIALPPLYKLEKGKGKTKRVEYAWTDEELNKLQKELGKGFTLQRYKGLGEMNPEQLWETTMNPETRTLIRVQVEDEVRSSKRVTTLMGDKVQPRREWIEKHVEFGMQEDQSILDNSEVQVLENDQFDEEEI
parameter measured: IC50 (µM)
Form entry: value (µM) — number only.

Kindly indicate its recorded IC50. Item: C/C(Cn1cc(-c2csc(N)n2)c(=O)c2cc(F)c(Cl)cc21)=N\NC(N)=S 10.9

###

tested on: Candida albicans; experiment: Antifungal activity against drug-resistant Candida albicans; format: functional
Returns: string. Value is yes (1) if measured MIC is below 400 µM, and no (0) if it is greater than or equal to it.

For this compound, is MIC lower than 400 µM? C/C(Cn1cc(-c2csc(N)n2)c(=O)c2cc(F)c(Cl)cc21)=N\NC(N)=S yes (1)

For this compound, is MIC lower than 400 µM? OC(Cn1cncn1)(Cn1cncn1)c1ccc(F)cc1F [FLUCONAZOLE] yes (1)

For this compound, is MIC lower than 400 µM? CC(=O)Cn1cc(-c2csc(C)n2)c(=O)c2cccc(F)c21 no (0)

For this compound, is MIC lower than 400 µM? Cc1nc(-c2c[nH]c3c(F)cccc3c2=O)cs1 no (0)

For this compound, is MIC lower than 400 µM? C/C(Cn1cc(-c2csc(N)n2)c(=O)c2cc(F)ccc21)=N\NC(N)=S yes (1)

For this compound, is MIC lower than 400 µM? Cc1nc(-c2c[nH]c3cc(Cl)c(F)cc3c2=O)cs1 no (0)

For this compound, is MIC lower than 400 µM? C/C(Cn1cc(-c2csc(C)n2)c(=O)c2cc(F)cc(F)c21)=N\NC(N)=S no (0)

For this compound, is MIC lower than 400 µM? C/C(Cn1cc(-c2csc(C)n2)c(=O)c2cc(F)c(F)cc21)=N\NC(N)=S no (0)

For this compound, is MIC lower than 400 µM? CC(=O)Cn1cc(-c2csc(N)n2)c(=O)c2cc(F)cc(F)c21 no (0)
